test.summary: Pharmacokinetic evaluation in CD-1 mice, gavage
Type: in vivo
settings: mouse, plasma, po, 10 mg/kg
Can you tell me bioavailability for the items I'm about to list?
# value in %; strip the unit string

Short answer for Cn1cc(-c2cc(Oc3ccc(NC(=O)N4CCC5(CCC5)C4=O)nc3)ccn2)cn1 : bioavailability was 100

Short answer for Cn1cc(-c2cc(Oc3ccc(NC(=O)N4CCC5(CC(F)(F)C5)C4=O)nc3)ccn2)cn1 : bioavailability was 79

Short answer for Cn1cc(-c2cc(Oc3ccc(NC(=O)N4CCC5(CCC(F)(F)CC5)C4=O)nc3)ccn2)cn1 : bioavailability was 100

Short answer for Cn1cc(-c2cc(Oc3ccc(NC(=O)N4CCC5(CC5)C4=O)nc3)ccn2)cn1 : bioavailability was 64

* * *

target: c-Kit (Homo sapiens (Human), UniProt P10721)
Sequence (P10721 26-976): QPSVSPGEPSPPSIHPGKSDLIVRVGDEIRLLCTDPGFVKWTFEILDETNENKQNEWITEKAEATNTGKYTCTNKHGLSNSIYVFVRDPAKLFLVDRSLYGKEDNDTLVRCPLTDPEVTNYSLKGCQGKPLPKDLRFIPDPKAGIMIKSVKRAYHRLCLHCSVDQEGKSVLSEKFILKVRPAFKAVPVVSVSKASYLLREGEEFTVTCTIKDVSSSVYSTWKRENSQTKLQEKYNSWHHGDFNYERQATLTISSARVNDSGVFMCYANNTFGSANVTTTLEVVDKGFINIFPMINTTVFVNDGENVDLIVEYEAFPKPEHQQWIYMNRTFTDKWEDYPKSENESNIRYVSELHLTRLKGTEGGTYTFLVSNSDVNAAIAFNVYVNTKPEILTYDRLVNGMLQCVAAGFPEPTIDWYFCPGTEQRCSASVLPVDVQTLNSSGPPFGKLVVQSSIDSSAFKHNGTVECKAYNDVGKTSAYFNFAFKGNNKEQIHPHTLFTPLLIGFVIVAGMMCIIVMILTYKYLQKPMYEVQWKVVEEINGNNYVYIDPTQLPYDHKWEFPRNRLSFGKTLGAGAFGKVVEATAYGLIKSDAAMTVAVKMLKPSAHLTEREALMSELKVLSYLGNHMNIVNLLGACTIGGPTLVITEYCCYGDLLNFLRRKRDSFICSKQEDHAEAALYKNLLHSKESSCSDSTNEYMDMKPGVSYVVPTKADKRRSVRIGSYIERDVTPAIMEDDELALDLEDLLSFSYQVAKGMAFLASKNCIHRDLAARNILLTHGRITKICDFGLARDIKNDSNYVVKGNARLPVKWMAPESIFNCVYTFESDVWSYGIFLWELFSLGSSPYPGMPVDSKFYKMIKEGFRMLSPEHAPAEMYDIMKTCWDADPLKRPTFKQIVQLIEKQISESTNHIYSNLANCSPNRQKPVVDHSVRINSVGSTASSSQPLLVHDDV
Exam item: assign YES to entries whose IC50 is below 5 nM and NO to entries at or above 5 nM. Note that a value of exactly 5 nM receives NO.

// query Is IC50 of Cn1cc(-c2cc(Oc3ccc(NC(=O)N4CCC5(CCCCC5)C4=O)nc3)ccn2)cn1 strictly below 5 nM?
// result NO

// query Is IC50 of Cn1cc(-c2cc(Oc3ccc(NC(=O)N4CCC5(CCC(=O)C5)C4=O)nc3)ccn2)cn1 (centres unmarked) strictly below 5 nM?
// result NO

// query Is IC50 of Cn1cc(-c2cc(Oc3ccc(NC(=O)N4CCC5(CCCC5)C4=O)nc3)ccn2)cn1 strictly below 5 nM?
// result YES

// query Is IC50 of Cn1cc(-c2cc(Oc3ccc(NC(=O)N4CCC5(CCCC(F)(F)C5)C4=O)nc3)ccn2)cn1 (centres unmarked) strictly below 5 nM?
// result NO

// query Is IC50 of Cc1nc(NC(=O)N2CCC3(CCC(F)(F)CC3)C2=O)ccc1Oc1ccnc(-c2cnn(C)c2)c1 strictly below 5 nM?
// result NO

// query Is IC50 of Cn1cc(-c2cc(Oc3ccc(NC(=O)N4CCC5(CCC5)C4=O)nc3)ccn2)cn1 strictly below 5 nM?
// result YES

// query Is IC50 of Cn1cc(-c2cc(Oc3ccc(NC(=O)N4CCC5(CCC(F)(F)CC5)C4=O)nc3)ccn2)cn1 strictly below 5 nM?
// result NO

* * *

target: FLT-3 (Homo sapiens (Human), UniProt P36888)
Sequence (P36888 27-993): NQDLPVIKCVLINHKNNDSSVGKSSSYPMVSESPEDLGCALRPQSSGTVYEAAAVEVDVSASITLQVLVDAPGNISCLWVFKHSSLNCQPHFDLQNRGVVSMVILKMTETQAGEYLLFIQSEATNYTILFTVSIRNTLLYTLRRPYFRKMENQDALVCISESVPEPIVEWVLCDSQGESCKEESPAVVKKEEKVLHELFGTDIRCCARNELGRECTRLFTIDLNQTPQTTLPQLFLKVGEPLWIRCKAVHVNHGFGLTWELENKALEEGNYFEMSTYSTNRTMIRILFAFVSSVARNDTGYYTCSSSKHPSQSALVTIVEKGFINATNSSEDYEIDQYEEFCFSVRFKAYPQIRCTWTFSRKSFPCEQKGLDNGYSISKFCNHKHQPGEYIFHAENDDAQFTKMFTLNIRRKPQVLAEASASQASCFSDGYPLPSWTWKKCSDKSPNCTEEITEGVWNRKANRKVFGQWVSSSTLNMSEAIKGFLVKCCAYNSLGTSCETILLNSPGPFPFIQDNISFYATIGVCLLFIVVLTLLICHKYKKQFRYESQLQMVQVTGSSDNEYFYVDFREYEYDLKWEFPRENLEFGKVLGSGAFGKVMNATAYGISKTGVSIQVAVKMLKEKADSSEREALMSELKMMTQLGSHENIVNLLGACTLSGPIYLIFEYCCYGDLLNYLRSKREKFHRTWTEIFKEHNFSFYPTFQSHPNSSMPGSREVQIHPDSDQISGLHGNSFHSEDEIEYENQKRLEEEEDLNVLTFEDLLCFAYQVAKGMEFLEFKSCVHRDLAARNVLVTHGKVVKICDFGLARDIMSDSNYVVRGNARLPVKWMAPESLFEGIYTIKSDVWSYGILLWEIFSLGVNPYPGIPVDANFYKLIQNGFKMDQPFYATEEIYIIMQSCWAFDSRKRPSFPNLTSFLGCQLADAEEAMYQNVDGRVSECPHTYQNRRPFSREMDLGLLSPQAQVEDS
Can you tell me IC50 for the items I'm about to list?

Item Cn1cc(-c2cc(Oc3ccc(NC(=O)N4CCC5(CCC5)C4=O)nc3)ccn2)cn1 was tested on FLT-3 (Homo sapiens (Human), UniProt P36888); the reported IC50 is > 10 µM

Item Cn1cc(-c2cc(Oc3ccc(NC(=O)N4CCC5(CCC(F)(F)CC5)C4=O)nc3)ccn2)cn1 was tested on FLT-3 (Homo sapiens (Human), UniProt P36888); the reported IC50 is > 10 µM

Item Cc1nc(NC(=O)N2CCC3(CCC(F)(F)CC3)C2=O)ccc1Oc1ccnc(-c2cnn(C)c2)c1 was tested on FLT-3 (Homo sapiens (Human), UniProt P36888); the reported IC50 is > 10 µM

* * *

test.summary: Pharmacokinetic evaluation in CD-1 mice, gavage
Assay type: in vivo
settings: mouse, po, 10 mg/kg, plasma
Exam item: assign satisfied to entries whose Cmax is below 3000 ng/mL and not satisfied to entries at or above 3000 ng/mL. Note that a value of exactly 3000 ng/mL receives not satisfied.

// query Is Cmax of Cc1nc(NC(=O)N2CCC3(CCC(F)(F)CC3)C2=O)ccc1Oc1ccnc(-c2cnn(C)c2)c1 strictly below 3000 ng/mL?
// result satisfied

// query Is Cmax of Cn1cc(-c2cc(Oc3ccc(NC(=O)N4CCC5(CCCC5)C4=O)nc3)ccn2)cn1 strictly below 3000 ng/mL?
// result not satisfied

// query Is Cmax of Cn1cc(-c2cc(Oc3ccc(NC(=O)N4CCC5(CCC5)C4=O)nc3)ccn2)cn1 strictly below 3000 ng/mL?
// result not satisfied

// query Is Cmax of Cn1cc(-c2cc(Oc3ccc(NC(=O)N4CCC5(CC(F)(F)C5)C4=O)nc3)ccn2)cn1 strictly below 3000 ng/mL?
// result not satisfied

// query Is Cmax of Cn1cc(-c2cc(Oc3ccc(NC(=O)N4CCC5(CCCCC5)C4=O)nc3)ccn2)cn1 strictly below 3000 ng/mL?
// result satisfied

// query Is Cmax of Cn1cc(-c2cc(Oc3ccc(NC(=O)N4CCC5(CCC(F)(F)CC5)C4=O)nc3)ccn2)cn1 strictly below 3000 ng/mL?
// result not satisfied

// query Is Cmax of Cn1cc(-c2cc(Oc3ccc(NC(=O)N4CCC5(CC5)C4=O)nc3)ccn2)cn1 strictly below 3000 ng/mL?
// result satisfied

* * *

test.summary: Pharmacokinetic evaluation in CD-1 mice, gavage
Assay type: in vivo
settings: 10 mg/kg, plasma
Please enter 1.0 where AUC is greater than or equal to 30000 ng·h/mL, and 0.0 where it is lower.

// query Reported AUC at or above 30000 ng·h/mL? Cn1cc(-c2cc(Oc3ccc(NC(=O)N4CCC5(CCC5)C4=O)nc3)ccn2)cn1 [Compound 1]
// result 0.0

// query Reported AUC at or above 30000 ng·h/mL? Cn1cc(-c2cc(Oc3ccc(NC(=O)N4CCC5(CCCC5)C4=O)nc3)ccn2)cn1 [Compound 3]
// result 0.0

// query Reported AUC at or above 30000 ng·h/mL? Cc1nc(NC(=O)N2CCC3(CCC(F)(F)CC3)C2=O)ccc1Oc1ccnc(-c2cnn(C)c2)c1 [Compound 14]
// result 0.0

// query Reported AUC at or above 30000 ng·h/mL? Cn1cc(-c2cc(Oc3ccc(NC(=O)N4CCC5(CCC(F)(F)CC5)C4=O)nc3)ccn2)cn1 [Compound 4]
// result 1.0

// query Reported AUC at or above 30000 ng·h/mL? Cn1cc(-c2cc(Oc3ccc(NC(=O)N4CCC5(CCCCC5)C4=O)nc3)ccn2)cn1 [Compound 2]
// result 0.0

// query Reported AUC at or above 30000 ng·h/mL? Cn1cc(-c2cc(Oc3ccc(NC(=O)N4CCC5(CC5)C4=O)nc3)ccn2)cn1 [Compound 10]
// result 0.0

// query Reported AUC at or above 30000 ng·h/mL? Cn1cc(-c2cc(Oc3ccc(NC(=O)N4CCC5(CC(F)(F)C5)C4=O)nc3)ccn2)cn1 [Compound 26]
// result 1.0

* * *

target: UniProt P07333
Sequence (P07333 20-972, species assumed): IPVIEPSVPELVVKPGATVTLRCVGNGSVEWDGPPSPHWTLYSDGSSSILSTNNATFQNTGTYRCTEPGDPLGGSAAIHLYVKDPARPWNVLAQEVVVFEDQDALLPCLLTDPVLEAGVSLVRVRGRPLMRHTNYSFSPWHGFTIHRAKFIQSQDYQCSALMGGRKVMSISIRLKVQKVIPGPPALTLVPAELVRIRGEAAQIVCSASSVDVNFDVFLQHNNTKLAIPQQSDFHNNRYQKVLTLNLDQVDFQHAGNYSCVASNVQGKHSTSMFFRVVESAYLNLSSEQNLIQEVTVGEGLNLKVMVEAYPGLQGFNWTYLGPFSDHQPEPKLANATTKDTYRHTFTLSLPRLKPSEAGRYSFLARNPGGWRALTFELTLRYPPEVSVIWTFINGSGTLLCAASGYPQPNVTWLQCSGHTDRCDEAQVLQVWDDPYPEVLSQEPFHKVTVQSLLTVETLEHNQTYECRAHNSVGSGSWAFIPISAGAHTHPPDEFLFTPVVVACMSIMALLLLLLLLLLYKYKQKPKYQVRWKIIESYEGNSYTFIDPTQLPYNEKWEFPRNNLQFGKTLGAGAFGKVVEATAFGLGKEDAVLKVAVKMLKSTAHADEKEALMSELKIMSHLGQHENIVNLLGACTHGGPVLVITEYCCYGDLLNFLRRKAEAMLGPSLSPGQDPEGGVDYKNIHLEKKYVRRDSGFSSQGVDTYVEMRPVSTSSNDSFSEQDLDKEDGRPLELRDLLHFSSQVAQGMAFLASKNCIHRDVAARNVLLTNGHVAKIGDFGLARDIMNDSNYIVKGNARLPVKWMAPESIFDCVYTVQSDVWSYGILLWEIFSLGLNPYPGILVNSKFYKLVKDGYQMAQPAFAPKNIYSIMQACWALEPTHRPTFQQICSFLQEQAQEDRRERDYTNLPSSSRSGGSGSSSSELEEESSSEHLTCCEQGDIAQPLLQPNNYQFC
Exam item: assign fulfilled to entries whose IC50 is below 6 nM and not fulfilled to entries at or above 6 nM. Note that a value of exactly 6 nM receives not fulfilled.

// query Is IC50 of Cn1cc(-c2cc(Oc3ccc(NC(=O)N4CCC5(CCNCC5)C4=O)nc3)ccn2)cn1 [Compound 11] strictly below 6 nM?
// result not fulfilled

// query Is IC50 of Cn1cc(-c2cc(Oc3ccc(NC(=O)N4CCC5(CCCCC5(F)F)C4=O)nc3)ccn2)cn1 (stereo not shown) [Compound 6] strictly below 6 nM?
// result fulfilled

// query Is IC50 of Cn1cc(-c2cc(Oc3ccc(NC(=O)N4CCC5(CC5)C4=O)nc3)ccn2)cn1 [Compound 10] strictly below 6 nM?
// result fulfilled

// query Is IC50 of CC(=O)N1CCC2(CC1)CCN(C(=O)Nc1ccc(Oc3ccnc(-c4cnn(C)c4)c3)cn1)C2=O [Compound 12] strictly below 6 nM?
// result not fulfilled

// query Is IC50 of Cn1cc(-c2cc(Oc3ccc(NC(=O)N4CCC5(CCOCC5)C4=O)nc3)ccn2)cn1 [Compound 5] strictly below 6 nM?
// result not fulfilled

// query Is IC50 of Cn1cc(-c2cc(Oc3ccc(NC(=O)N4CCC5(CCCO5)C4=O)nc3)ccn2)cn1 (stereo not shown) [Compound 7] strictly below 6 nM?
// result fulfilled

// query Is IC50 of Cn1cc(-c2cc(Oc3ccc(NC(=O)N4CCC5(CCCC5)C4=O)nc3)ccn2)cn1 [Compound 3] strictly below 6 nM?
// result fulfilled

// query Is IC50 of Cn1cc(-c2cc(Oc3ccc(NC(=O)N4CCC5(CCN(S(C)(=O)=O)CC5)C4=O)nc3)ccn2)cn1 [Compound 13] strictly below 6 nM?
// result not fulfilled

// query Is IC50 of Cn1cc(-c2cc(Oc3ccc(NC(=O)N4CCC5(CCCC(O)C5)C4=O)nc3)ccn2)cn1 (stereo not shown) [Compound 17] strictly below 6 nM?
// result not fulfilled

// query Is IC50 of Cn1cc(-c2cc(Oc3ccc(NC(=O)N4CCC5(CCCCC5F)C4=O)nc3)ccn2)cn1 (stereo not shown) [Compound 9] strictly below 6 nM?
// result fulfilled

// query Is IC50 of Cn1cc(-c2cc(Oc3ccc(NC(=O)N4CCC5(CCCC5(F)F)C4=O)nc3)ccn2)cn1 (stereo not shown) [Compound 8] strictly below 6 nM?
// result fulfilled

// query Is IC50 of Cn1cc(-c2cc(Oc3ccc(NC(=O)N4CCC5(CCCCC5)C4=O)nc3)ccn2)cn1 [Compound 2] strictly below 6 nM?
// result not fulfilled

// query Is IC50 of Cc1ncc(-c2cc(Oc3ccc(NC(=O)N4CCC5(CCC(F)(F)CC5)C4=O)nc3)ccn2)s1 [Compound 23] strictly below 6 nM?
// result fulfilled
